- TARGET_OF_ASSAY: T1, hVISTA-ECD 6-His tag (human, UniProt Q9H7M9 33-193)
- T1 construct: also called monovalent hVISTA-ECD; human VISTA
- ASSAY_TEXT: SPR 37 C, Ab on Protein A, pH 7.4
Binary classification by kon, with 50000 M⁻¹ s⁻¹ as an inclusive lower bound for y; all other cases are n.

{"BINDER": "P1-077841 (P1-068744 E100S) (antibody, V domains shown) VH: QVQLVESGGGVVQPGRSLRLSCAASGFTFSEYAMHWVRQAPGKGLEWVAHIWYDGSNKYEADSVKGRFTISRDNSKNTLYLQMNSLRAEDTAVYYCARDSGFYSSYYFDEWGQGTLVTVSS VL: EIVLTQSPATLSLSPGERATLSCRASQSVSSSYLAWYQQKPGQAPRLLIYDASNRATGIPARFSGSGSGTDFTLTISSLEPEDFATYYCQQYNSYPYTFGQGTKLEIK", "DISCRETE_LABEL": "y"}
{"BINDER": "P1-068744 (antibody, human IgG1, kappa, V domains shown, also called P1-068744-7) VH: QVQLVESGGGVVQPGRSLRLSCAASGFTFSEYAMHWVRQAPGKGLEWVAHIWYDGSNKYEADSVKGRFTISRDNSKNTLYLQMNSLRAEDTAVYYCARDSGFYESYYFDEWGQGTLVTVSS VL: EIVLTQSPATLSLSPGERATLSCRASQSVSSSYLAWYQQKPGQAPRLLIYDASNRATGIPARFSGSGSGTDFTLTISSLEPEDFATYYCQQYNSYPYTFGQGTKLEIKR", "DISCRETE_LABEL": "n"}
{"BINDER": "P1-077843 (P1-068744 E102Y) (antibody, V domains shown) VH: QVQLVESGGGVVQPGRSLRLSCAASGFTFSEYAMHWVRQAPGKGLEWVAHIWYDGSNKYEADSVKGRFTISRDNSKNTLYLQMNSLRAEDTAVYYCARDSGFYESYYFDYWGQGTLVTVSS VL: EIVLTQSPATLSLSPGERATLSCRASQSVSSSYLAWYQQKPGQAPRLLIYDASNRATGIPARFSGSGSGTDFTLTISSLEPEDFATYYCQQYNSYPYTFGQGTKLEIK", "DISCRETE_LABEL": "n"}
{"BINDER": "P1-077849 (P1-068744 E59Y E100S) (antibody, V domains shown) VH: QVQLVESGGGVVQPGRSLRLSCAASGFTFSEYAMHWVRQAPGKGLEWVAHIWYDGSNKYYADSVKGRFTISRDNSKNTLYLQMNSLRAEDTAVYYCARDSGFYSSYYFDEWGQGTLVTVSS VL: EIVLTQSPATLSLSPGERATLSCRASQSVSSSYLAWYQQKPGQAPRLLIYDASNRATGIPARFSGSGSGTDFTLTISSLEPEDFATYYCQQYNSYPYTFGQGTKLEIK", "DISCRETE_LABEL": "y"}
{"BINDER": "P1-077855 (P1-068744 E31S E59Y) (antibody, V domains shown) VH: QVQLVESGGGVVQPGRSLRLSCAASGFTFSSYAMHWVRQAPGKGLEWVAHIWYDGSNKYYADSVKGRFTISRDNSKNTLYLQMNSLRAEDTAVYYCARDSGFYESYYFDEWGQGTLVTVSS VL: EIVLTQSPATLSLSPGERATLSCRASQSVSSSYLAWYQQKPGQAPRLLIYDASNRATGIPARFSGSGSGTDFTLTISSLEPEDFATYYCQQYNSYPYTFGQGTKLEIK", "DISCRETE_LABEL": "n"}
{"BINDER": "P1-077861 (P1-068744 H50I E102Y) (antibody, V domains shown) VH: QVQLVESGGGVVQPGRSLRLSCAASGFTFSEYAMHWVRQAPGKGLEWVAIIWYDGSNKYEADSVKGRFTISRDNSKNTLYLQMNSLRAEDTAVYYCARDSGFYESYYFDYWGQGTLVTVSS VL: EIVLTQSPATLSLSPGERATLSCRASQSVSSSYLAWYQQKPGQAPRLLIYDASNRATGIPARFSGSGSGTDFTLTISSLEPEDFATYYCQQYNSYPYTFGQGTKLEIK", "DISCRETE_LABEL": "y"}
